Relative cAMP EC50 overview
Target: human glucagon receptor (human) (UniProt P47871)
Sequence (P47871 26-477): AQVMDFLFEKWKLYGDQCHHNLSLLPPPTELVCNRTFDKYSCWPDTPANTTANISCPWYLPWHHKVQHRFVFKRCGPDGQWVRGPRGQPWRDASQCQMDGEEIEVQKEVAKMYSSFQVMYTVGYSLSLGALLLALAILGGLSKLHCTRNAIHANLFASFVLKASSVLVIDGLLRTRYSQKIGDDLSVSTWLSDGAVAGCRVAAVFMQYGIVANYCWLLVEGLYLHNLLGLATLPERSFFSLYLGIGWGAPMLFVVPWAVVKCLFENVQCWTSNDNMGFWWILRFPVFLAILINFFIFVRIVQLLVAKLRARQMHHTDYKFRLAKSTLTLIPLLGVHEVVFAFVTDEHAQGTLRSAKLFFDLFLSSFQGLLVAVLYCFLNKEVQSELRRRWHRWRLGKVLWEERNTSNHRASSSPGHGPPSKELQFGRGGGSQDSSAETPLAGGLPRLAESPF
Experiment: cell-based or functional assay

{"binder": "YXQGTFTSDXSXXLDKKAQXAFIEYLIEXGESSGAPPPSGS (Aib, 4Pal, Orn, αMeL, αMe4Pal, acylated Lys, amide; synthetic construct; SITE 2: note = 2-Aminoisobutyric Acid; SITE 10: note = 3-(4-Pyridyl)-L-alanine; SITE 12: note = L-ornithine; SITE 13: note = alpha-methyl-leucine; SITE 17: note = Lysine is chemically modified through conjugation of the epsilon-amino group of the Lysine side chain with (2-[2-(2-) [Example 223]", "units_of_measure": "nM", "Relative cAMP EC50": 1.57}
{"binder": "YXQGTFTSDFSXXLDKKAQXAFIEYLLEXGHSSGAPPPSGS (non-natural residues; C18 diacid-γGlu-AEEA on Lys; C-terminal amide; synthetic construct; SITE 2: note = 2-Aminoisobutyric Acid; SITE 12: note = L-ornithine; SITE 13: note = alpha-methyl-leucine; SITE 17: note = Lysine is chemically modified through conjugation of the epsilon-amino group of the Lysine side chain with (2-[2-(2-Amino-ethoxy)-ethoxy]-acetyl)-(gamma-Glu)) [Example 241]", "units_of_measure": "nM", "Relative cAMP EC50": 2.71}
{"binder": "YXQGTXTSDXXIXLDXKAAXEFIEXLVEGGPSSGEPPPSGS (synthetic construct; SITE 2: note = 2-Aminoisobutyric Acid; SITE 6: note = alpha-methyl-2-fluoro-L-phenylalanine; SITE 10: note = 3-(4-Pyridyl)-L-alanine; SITE 11: note = alpha-methyl-L-serine; SITE 13: note = alpha-methyl-leucine; SITE 16: note = L-ornithine; SITE 17: note = Lysine is chemically mo) [Example 695 (SEQ ID NO: 701)]", "units_of_measure": "nM", "Relative cAMP EC50": 1.93}
{"binder": "YXQGTXTSDXXIXLDXKAQXEFIEXLIEGGPSSGEPPPESE (non-natural residues; K acylated AEEA-γGlu-C18 diacid; C-amide; synthetic construct; SITE 2: note = 2-Aminoisobutyric Acid; SITE 6: note = alpha-methyl-2-fluoro-L-phenylalanine; SITE 10: note = 3-(4-Pyridyl)-L-alanine; SITE 11: note = alpha-methyl-L-serine; SITE 13: note = alpha-methyl-leucine; SITE 16: note = L-ornithine; SITE 17: note = Lysine is chemically mo) [Example 1147]", "units_of_measure": "nM", "Relative cAMP EC50": 1.17}
{"binder": "YXQGTXTSDXXIXLDXKAQXEFIEXLVEGGPSSGEPPPESE (not fully specified; non-natural residues; lipidated Lys; C-terminal amide; synthetic construct; SITE 2: note = 2-Aminoisobutyric Acid; SITE 6: note = alpha-methyl-2-fluoro-L-phenylalanine; SITE 10: note = 3-(4-Pyridyl)-L-alanine; SITE 11: note = alpha-methyl-L-serine; SITE 13: note = alpha-methyl-leucine; SITE 16: note = L-ornithine; SITE 17: note = Lysine is chemically mo) [Example 1157]", "units_of_measure": "nM", "Relative cAMP EC50": 2.04}
{"binder": "YXQGTFTSDXSQXLDXKAQXAFIEXLIEXGPSSGEPPPSGSEE (not fully specified; Aib, 4Pal, Orn, Me4Pal, αMeY; lipidated Lys; C-terminal amide; synthetic construct; SITE 2: note = 2-Aminoisobutyric Acid; SITE 10: note = 3-(4-Pyridyl)-L-alanine; SITE 13: note = alpha-methyl-leucine; SITE 16: note = L-ornithine; SITE 17: note = Lysine is chemically modified through conjugation of the epsilon-amino group of the Lysine side chain with D-Glutami) [Example 1103]", "units_of_measure": "nM", "Relative cAMP EC50": 11.1}
